IC50 listing for selected compounds.
- Species on record: Rattus norvegicus
- experiment description: Inhibitory concentration against ferric ascorbate-induced lipid peroxidation from rat liver microsomal preparation
- Type: functional
quantity measured: IC50 (nM)

CC(C)C(NC(=O)[C@@H]1CC2CCCCC2N1C(=O)[C@@H](CCCCNC(=O)Cc1cc(C(C)(C)C)c(O)c(C(C)(C)C)c1)NC(=O)c1ccc(C(=O)NS(=O)(=O)c2ccc(Cl)cc2)cc1)C(=O)C(F)(F)F (stereo partly drawn) | 2500
CC(C)C(NC(=O)c1ccc(S(=O)(=O)NC(=O)Cc2cc(C(C)(C)C)c(O)c(C(C)(C)C)c2)cc1)C(=O)N1[C@@H](C(=O)NC(C(=O)C(F)(F)F)C(C)C)C[C@H]2CCCC[C@H]21 (stereo partly drawn) | 5000
CC(C)C(NC(=O)[C@@H]1CC2CCCCC2N1C(=O)[C@@H](CCCCNC(=O)CCCSc1cc(C(C)(C)C)c(O)c(C(C)(C)C)c1)NC(=O)c1ccc(C(=O)NS(=O)(=O)c2ccc(Cl)cc2)cc1)C(=O)C(F)(F)F (stereo partly drawn) | 2500
